Listed here are compounds together with their documented mass density.
settings: 333.15 K; 100 kPa; Liquid; Vibrating tube method
metric: mass density (kg/m3)

compound=CCn1cc[n+](C)c1.O=S(=O)([N-]S(=O)(=O)C(F)(F)F)C(F)(F)F metric="mass density" assay_value=1484.2
compound=CCCCCCn1cc[n+](C)c1C.O=S(=O)([N-]S(=O)(=O)C(F)(F)F)C(F)(F)F metric="mass density" assay_value=1328.9
compound=CCCC[n+]1ccn(C)c1.O=S(=O)([N-]S(=O)(=O)C(F)(F)F)C(F)(F)F metric="mass density" assay_value=1404.1
compound=CCCCCC[n+]1ccn(C)c1.O=S(=O)([N-]S(=O)(=O)C(F)(F)F)C(F)(F)F metric="mass density" assay_value=1340.3
compound="CCCCCCCC[P+](CC)(CC)CC.O=[N+]([O-])c1cn[n-]c1 [triethyloctylphosphonium 4-nitropyrazolide]" metric="mass density" assay_value=1010.8

---

assay: xn = mol fraction of the nth substance listed; settings: 278.15 K; 100 kPa; Liquid; Cone and plate viscometry; x1 = 0.2
metric: viscosity (mPa·s)

compound="CCCCCCCCCCCCCC[P+](CCCCCC)(CCCCCC)CCCCCC.N#Cc1ccc[n-]1 [trihexyl(tetradecyl)phosphonium 2-cyanopyrrolide] + CCCCCC[n+]1ccn(C)c1.O=S(=O)([N-]S(=O)(=O)C(F)(F)F)C(F)(F)F" metric=viscosity value_unit=mPa·s assay_value=520
compound="CCCCCCCCCCCCCC[P+](CCCCCC)(CCCCCC)CCCCCC.O=S(=O)([N-]S(=O)(=O)C(F)(F)F)C(F)(F)F + CCCCCC[n+]1ccn(C)c1.O=S(=O)([N-]S(=O)(=O)C(F)(F)F)C(F)(F)F" metric=viscosity value_unit=mPa·s assay_value=390
compound="CCCCCCn1cc[n+](C)c1.N#Cc1ccc[n-]1 [1-hexyl-3-methylimidazolium 2-cyanopyrrolide] + CCCCCCCCCCCCCC[P+](CCCCCC)(CCCCCC)CCCCCC.O=S(=O)([N-]S(=O)(=O)C(F)(F)F)C(F)(F)F" metric=viscosity value_unit=mPa·s assay_value=1261
compound="CCCCCCCCCCCCCC[P+](CCCCCC)(CCCCCC)CCCCCC.O=[N+]([O-])c1cn[n-]c1 [trihexyl(tetradecyl)phosphonium 4-nitropyrazolide] + CCCCCC[n+]1ccn(C)c1.O=S(=O)([N-]S(=O)(=O)C(F)(F)F)C(F)(F)F" metric=viscosity value_unit=mPa·s assay_value=528

---

assay: xn = mol fraction of the nth substance listed; details: 283.15 K; 100 kPa; Liquid; Vibrating tube method; x1 = 0.25
± gives the expanded uncertainty stated by the source.
metric: mass density

compound="CCCCCCCC[P+](CC)(CC)CC.O=[N+]([O-])c1cn[n-]c1 [triethyloctylphosphonium 4-nitropyrazolide] + CCCCCCn1cc[n+](C)c1C.O=S(=O)([N-]S(=O)(=O)C(F)(F)F)C(F)(F)F" assay_value="1290 ± 12 kg/m3"
compound="CCCCCCCC[P+](CC)(CC)CC.O=[N+]([O-])c1cn[n-]c1 [triethyloctylphosphonium 4-nitropyrazolide] + CCCCCC[n+]1ccn(C)c1.O=S(=O)([N-]S(=O)(=O)C(F)(F)F)C(F)(F)F" assay_value="1296.5 ± 12 kg/m3"
compound="CCCCCCn1cc[n+](C)c1C.O=[N+]([O-])c1cn[n-]c1 [1-hexyl-2,3-dimethylimidazolium 4-nitropyrazolide] + CCCCCCCCCCCCCC[P+](CCCCCC)(CCCCCC)CCCCCC.O=S(=O)([N-]S(=O)(=O)C(F)(F)F)C(F)(F)F" assay_value="1081.8 ± 12 kg/m3"
compound="CCCCCCn1cc[n+](C)c1.O=[N+]([O-])c1cn[n-]c1 [1-hexyl-3-methylimidazolium 4-nitropyrazolide] + CCCCCCCCCCCCCC[P+](CCCCCC)(CCCCCC)CCCCCC.O=S(=O)([N-]S(=O)(=O)C(F)(F)F)C(F)(F)F" assay_value="1081.8 ± 4 kg/m3"

// data source = the NIST ThermoML archive (doi:10.1021/acs.jced.7b00221)
